# key: entry, value: IC50
# ASSAYED SYSTEM: ATM (Homo sapiens (Human), UniProt Q13315)
# Sequence (Q13315 whole entry): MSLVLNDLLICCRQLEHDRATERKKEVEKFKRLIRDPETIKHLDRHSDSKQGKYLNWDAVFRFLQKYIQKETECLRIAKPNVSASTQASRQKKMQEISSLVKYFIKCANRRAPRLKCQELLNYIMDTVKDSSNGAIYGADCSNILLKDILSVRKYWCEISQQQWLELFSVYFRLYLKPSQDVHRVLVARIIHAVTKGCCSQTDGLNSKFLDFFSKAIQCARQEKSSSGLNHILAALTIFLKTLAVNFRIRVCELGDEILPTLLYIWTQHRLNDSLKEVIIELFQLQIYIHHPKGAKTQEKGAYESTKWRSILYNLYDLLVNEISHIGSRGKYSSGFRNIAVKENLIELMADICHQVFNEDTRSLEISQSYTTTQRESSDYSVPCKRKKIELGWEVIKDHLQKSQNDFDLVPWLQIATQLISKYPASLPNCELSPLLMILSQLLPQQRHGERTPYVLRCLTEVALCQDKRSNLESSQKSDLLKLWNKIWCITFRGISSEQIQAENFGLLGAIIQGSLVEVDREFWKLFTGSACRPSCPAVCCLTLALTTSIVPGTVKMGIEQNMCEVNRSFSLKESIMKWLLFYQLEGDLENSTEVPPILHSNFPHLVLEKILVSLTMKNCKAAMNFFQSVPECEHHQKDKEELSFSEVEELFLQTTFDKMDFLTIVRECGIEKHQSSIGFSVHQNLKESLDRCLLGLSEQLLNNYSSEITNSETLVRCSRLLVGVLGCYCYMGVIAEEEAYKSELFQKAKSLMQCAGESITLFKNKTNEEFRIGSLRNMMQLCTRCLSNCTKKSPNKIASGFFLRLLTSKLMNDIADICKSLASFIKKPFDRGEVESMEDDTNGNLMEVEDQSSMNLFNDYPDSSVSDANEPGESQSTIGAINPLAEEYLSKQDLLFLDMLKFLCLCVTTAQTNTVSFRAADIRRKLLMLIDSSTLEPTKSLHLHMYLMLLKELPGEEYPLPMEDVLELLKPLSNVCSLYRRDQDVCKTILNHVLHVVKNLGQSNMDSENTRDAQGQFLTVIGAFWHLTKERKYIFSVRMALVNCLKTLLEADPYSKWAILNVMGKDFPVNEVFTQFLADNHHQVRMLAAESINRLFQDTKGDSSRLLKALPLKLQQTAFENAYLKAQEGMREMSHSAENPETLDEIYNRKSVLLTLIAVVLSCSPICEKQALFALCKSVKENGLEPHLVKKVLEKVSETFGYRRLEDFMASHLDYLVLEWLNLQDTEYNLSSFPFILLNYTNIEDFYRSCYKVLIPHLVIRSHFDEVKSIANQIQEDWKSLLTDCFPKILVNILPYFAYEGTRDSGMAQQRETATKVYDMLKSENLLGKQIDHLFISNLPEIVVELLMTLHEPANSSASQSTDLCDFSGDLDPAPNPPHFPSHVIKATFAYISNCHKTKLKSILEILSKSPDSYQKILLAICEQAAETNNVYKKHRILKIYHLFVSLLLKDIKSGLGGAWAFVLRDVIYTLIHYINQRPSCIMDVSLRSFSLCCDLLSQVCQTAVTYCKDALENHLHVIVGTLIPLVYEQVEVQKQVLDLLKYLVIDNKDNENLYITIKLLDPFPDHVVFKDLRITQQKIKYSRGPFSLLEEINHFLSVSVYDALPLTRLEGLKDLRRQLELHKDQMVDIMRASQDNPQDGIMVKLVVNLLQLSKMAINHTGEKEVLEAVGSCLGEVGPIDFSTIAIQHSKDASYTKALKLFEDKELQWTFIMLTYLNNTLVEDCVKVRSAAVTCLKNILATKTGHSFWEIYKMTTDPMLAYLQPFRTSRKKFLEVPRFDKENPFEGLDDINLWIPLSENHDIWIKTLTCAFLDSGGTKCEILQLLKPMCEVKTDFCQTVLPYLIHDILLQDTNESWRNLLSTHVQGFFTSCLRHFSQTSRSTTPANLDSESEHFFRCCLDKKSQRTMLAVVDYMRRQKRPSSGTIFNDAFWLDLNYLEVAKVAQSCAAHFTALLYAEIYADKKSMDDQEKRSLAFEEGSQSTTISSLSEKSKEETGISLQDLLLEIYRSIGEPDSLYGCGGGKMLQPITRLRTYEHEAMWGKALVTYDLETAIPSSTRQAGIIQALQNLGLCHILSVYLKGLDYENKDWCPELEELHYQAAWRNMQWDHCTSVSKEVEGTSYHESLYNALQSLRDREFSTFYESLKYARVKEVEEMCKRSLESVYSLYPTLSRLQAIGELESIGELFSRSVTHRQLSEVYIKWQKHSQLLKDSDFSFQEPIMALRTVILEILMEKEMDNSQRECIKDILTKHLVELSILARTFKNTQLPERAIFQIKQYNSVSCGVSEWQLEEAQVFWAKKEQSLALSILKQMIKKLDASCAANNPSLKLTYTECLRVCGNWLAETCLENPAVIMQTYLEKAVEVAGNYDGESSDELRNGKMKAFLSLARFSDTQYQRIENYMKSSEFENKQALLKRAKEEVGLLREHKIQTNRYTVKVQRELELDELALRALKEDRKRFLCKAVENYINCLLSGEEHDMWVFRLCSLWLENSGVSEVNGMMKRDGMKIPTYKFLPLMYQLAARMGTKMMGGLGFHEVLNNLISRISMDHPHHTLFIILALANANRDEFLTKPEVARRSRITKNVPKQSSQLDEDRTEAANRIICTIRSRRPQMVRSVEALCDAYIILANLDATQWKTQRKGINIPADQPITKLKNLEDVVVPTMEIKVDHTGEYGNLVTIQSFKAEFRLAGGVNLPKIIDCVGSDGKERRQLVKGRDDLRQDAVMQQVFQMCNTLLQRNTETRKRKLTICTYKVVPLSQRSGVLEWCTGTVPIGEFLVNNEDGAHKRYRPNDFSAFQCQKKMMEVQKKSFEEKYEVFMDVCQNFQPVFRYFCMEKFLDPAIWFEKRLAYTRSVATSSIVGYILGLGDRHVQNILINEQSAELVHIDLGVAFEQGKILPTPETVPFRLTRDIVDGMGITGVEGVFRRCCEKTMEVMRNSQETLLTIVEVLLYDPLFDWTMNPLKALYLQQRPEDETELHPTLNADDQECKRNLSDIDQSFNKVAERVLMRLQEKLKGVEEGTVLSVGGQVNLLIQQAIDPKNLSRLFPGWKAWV
# METHOD NOTES: ATM biochemical assay (Reaction Biology HTRF kinase assay, 10 μM ATP)
# PROTOCOL CONDITIONS: class symbol
# Method: Ataxia-Telangiectasia Mutated (ATM) Biochemical Assay Using Reaction Biology's HTRF Kinase Assay Protocol: The assay detects kinase activity by antibody based HTRF assay. The GST-tagged p53 protein serves as substrate and Eu-labeled-antibody with specific phosphorylation site binds upon phosphorylation which is monitored by HTRF from the anti-GST-d2. Reagent: Reaction buffer; 50 mM Hepes (pH 7.5), 150 mM NaCl, 10 mM MnCl2, 1% Glycerol, 0.01% Brij35, 1 mM DTT, 1% DMSO. […]

Some solved entries appear below for comparison.
Provide IC50 value for the following molecule: Cc1cc2ncnn2cc1Nc1ncc2c(n1)n(C13CCC(O)(CC1)CC3)c(=O)n2C
10 to 100 nM

Provide IC50 value for the following molecule: COC12CCC(N3CC(=O)N(C)c4cnc(Nc5cc6cccnc6cc5C)nc43)(CC1)C2
1 to 10 nM

Provide IC50 value for the following molecule: Cc1cc2nccnc2cc1Nc1ncc2c(n1)N(C13CCC(O)(CC1)C3)CC(=O)N2C
10 to 100 nM

Provide IC50 value for the following molecule: Cc1cc(-c2cnn(C)c2)c(F)cc1Nc1ncc2c(n1)n(C13CCC(O)(CC1)C3)c(=O)n2C
1 to 10 nM

Provide IC50 value for the following molecule: COC12CCC(n3c(=O)n(C)c4cnc(Nc5cc6c(cc5C)OCCO6)nc43)(CC1)C2
100 to 1000 nM

Provide IC50 value for the following molecule: Cc1cc2c(cc1Nc1ncc3c(n1)n([C@H]1C[C@@H]4CC[C@H]1C4)c(=O)n3C)OCO2
100 to 1000 nM

Provide IC50 value for the following molecule: Cc1cc2ncccc2cc1Nc1ncc2c(n1)n([C@H]1C[C@@H]3CC[C@H]1C3)c(=O)n2C
1 to 10 nM

Now for a further molecule.
Provide IC50 value for the following molecule: Cc1cc(-c2cnn(C)c2)ncc1Nc1ncc2c(n1)N(C13CC(F)(C1)C3)C(=O)C21CC1
10 to 100 nM
